Study target: T1, HLA-B62 (B*1501) (human)
T1 construct: Acid-stripped B-LCL
Test: cell competition vs YLGEFSC(FI)TY, stripped BSM B-LCL, FACS
pIC50: −log10 of the molar value.
Observation type: pIC50

binder="GQHLHLETF (also called start 89) [PRAME peptide GQHLHLETF]" observation_type=pIC50 qualifier== quantitative_result=5.62
binder="LQHLIGLSNL (also called start 427) [PRAME peptide LQHLIGLSNL]" observation_type=pIC50 qualifier== quantitative_result=5.62
binder="VLYPVPLESY (also called start 439) [PRAME peptide VLYPVPLESY]" observation_type=pIC50 qualifier== quantitative_result=5.78
binder="LLRHVMNPL (also called start 316) [PRAME peptide LLRHVMNPL]" observation_type=pIC50 qualifier== quantitative_result=5.59
binder="ALYVDSLFF (also called start 300) [PRAME peptide ALYVDSLFF]" observation_type=pIC50 qualifier=> quantitative_result=6.00
